# assayed target: HLA-DP DPA1*02:01/DPB1*14:01 (Homo sapiens, UniProt P04440+P20036, A65V/A84D/A85E/E86D/F191V/F38H/G113D/G114E/G40L/I94L/K142R/L158P/L37V/M105V/M116V/M62Q/P115A/Q81R/R125K/T114A/T199I/T259P)
# Sequence (P20036 29-260 A42M/M62Q/Q81R/T114A/K142R/L158P/F191V/T259P): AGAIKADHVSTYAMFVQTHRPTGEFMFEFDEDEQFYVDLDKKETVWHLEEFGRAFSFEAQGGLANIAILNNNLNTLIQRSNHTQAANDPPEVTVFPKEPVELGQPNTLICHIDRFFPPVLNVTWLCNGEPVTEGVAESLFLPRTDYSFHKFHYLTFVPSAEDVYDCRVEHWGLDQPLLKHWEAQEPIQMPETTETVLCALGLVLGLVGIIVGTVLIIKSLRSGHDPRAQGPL
# Sequence (P04440 30-258 with the stated changes): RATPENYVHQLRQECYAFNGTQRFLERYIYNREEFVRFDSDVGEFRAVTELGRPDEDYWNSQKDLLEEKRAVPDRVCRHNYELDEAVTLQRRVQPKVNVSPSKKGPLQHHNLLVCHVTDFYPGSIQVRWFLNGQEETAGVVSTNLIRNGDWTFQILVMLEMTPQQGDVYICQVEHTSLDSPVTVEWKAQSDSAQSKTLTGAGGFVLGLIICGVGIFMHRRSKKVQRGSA
# procedure summary: biochemical
# Format: binding
Ends that are not written are not given here.
Reported IC50 by item:
Write the figure, then the unit, nothing else.

| substance | IC50 |
| --- | --- |
| VGSLQYLALTALITPKK-NH2 [vif(142-158)] | 0.071 µM |
| YAKMRSAHTNDVKQL-NH2 [RT(354-368)] | 0.919 µM |
| SEELRSLYNTVATLYCVHQ-NH2 [p17(72-90)] | 9.71 µM |

Kindly review the next substance as well.
Would you mind telling me what IC50 value was observed for EAVRHFPRPWLHGL-NH2 [vpr(29-42)] ?
7.69 µM

Where do the numbers come from? From paper PMC3445454.
